Numbers sourced from patent US11180770B2.

Tested on: HPPD polypeptides
assay-details: coupled HPPD activity assay: turnover and residual turnover in crude extracts
Assay type: biochemical, Pseudomonas fluorescens
condition-parameters: absence of Cmpd. 1; high substrate concentration; kinetic changes in absorbance (OD) at 320 nm, 30 min
Experimental: The activity of HPPD polypeptides was determined in absence or presence of HPPD inhibitors using the coupled HPPD activity assay (FIG. 1). […] Residual turnover were determined according to Example 3 by measuring total change in signal in the presence and absence of Cmpd. […]
Each record here notes measured Turnover.
Lab note: jot down the number only; don't add units.

The cases that follow already have their Turnover on record.
30 (protein, mutant HPPD polypeptide) MADLYENPMGLMGFEFIEFASPTPGTLEPIFEIMGFTKVATHRSKNVHLYRQGEINLILNNEPNSIASYFAAEHGPSVCGMAFRVKDSQKAYNRALELGAQPIHIDTGPMELNLPAIKGIGGAPLYLIDRFGEGSSIYDIDFVYLEGVERNPVGAGLKVIDHLTHNVYRGRMVYWANFYEKLFNFREARYFDIKGEYTGLTSKAMSAPDGMIRIPLNEESSKGAGQIEEFLMQFNGEGIQHVAFLTDDLVKTWDALKKIGMRFMTAPADTYYEMLEGRLPDHGEPVDQLQARGILLDGSSVEGDKRLLLQIFSETLMGPVFFEFIQRKGDDGFGPHSFKVLFESVERDQVRRGVLTAD
0.311
36 (protein, mutant HPPD polypeptide) MADLYENPMGLMGFEFIEFASPTPGTLEPIFEIMGFTKVATHRSKNVHLYRQGEINLILNNEPNSIASYFAAEHGPSVCGMAFRVKDSQKAYNRALELGAQPIHIDTGPMELNLPAIKGIGGAPLYLIDRFGEGSSIYDIDFVYLEGVERNPVGAGLKVIDHLTHNVYRGRMVYWANFYEKLFNFREARYFDIKGEYTGLTSKAMSAPDGMIRIPLNEESSKGAGQIEEFLMQFNGEGIQHVAFLTDDLVKTWDALKKIGMRFMTAPRDNYYEMLEGRLPDHGEPVDQLQARGILLDGSSVEGDKRLLLQIFSETLMGPVFFEFIQRKGDDGFGPHSFKVLFESVERDQVRRGVLTAD
0.108
31 (protein, mutant HPPD polypeptide) MADLYENPMGLMGFEFIEFASPTPGTLEPIFEIMGFTKVATHRSKNVHLYRQGEINLILNNEPNSIASYFAAEHGPSVCGMAFRVKDSQKAYNRALELGAQPIHIDTGPMELNLPAIKGIGGAPLYLIDRFGEGSSIYDIDFVYLEGVERNPVGAGLKVIDHLTHNVYRGRMVYWANFYEKLFNFREARYFDIKGEYTGLTSKAMSAPDGMIRIPLNEESSKGAGQIEEFLMQFNGEGIQHVAFLTDDLVKTWDALKKIGMRFMTAPGDTYYEMLEGRLPDHGEPVDQLQARGILLDGSSVEGDKRLLLQIFSETLMGPVFFEFIQRKGDDGFGPHSFKVLFESVERDQVRRGVLTAD
0.268

# ---- query molecule ----
query: Check the records and state Turnover for 3 (protein, mutant HPPD polypeptide) MADLYENPMGLMGFEFIEFASPTPGTLEPIFEIMGFTKVATHRSKNVHLYRQGEINLILNNEPNSIASYFAAEHGPSVCGMAFRVKDSQKAYNRALELGAQPIHIDTGPMELNLPAIKGIGGAPLYLIDRFGEGSSIYDIDFVYLEGVERNPVGAGLKVIDHLTHNVYRGRMVYWANFYEKLFNFREARYFDIKGEYTGLTSKAMSAPDGMIRIPLNEESSKGAGQIEEFLMQFNGEGIQHVAFLTDDLVKTWDALKKIGMRFMTAPADTYYEMLEGRLPDHGEPVDQLQARGILLDGSSVEGDKRLLLQIFSETLMGPVFFEFIQRKGDDGFGPDSFKVLFESIERDQVRRGVLTAD
result: 0.096
